system: polypeptide of sequence SEQ ID NO: 19 (Ac-RFAACAA-NH2); assay: HPLC test of % fixing of test compound on polypeptide (positive control peptide); assay type: binding; settings: Example 2; 0.5 mM polypeptide, 5 mM test compound, 100 mM TRIS-HCl pH 8.3
MEASURED PROPERTY: % fixing, SEQ ID NO: 19 (%)
Return type: number; implicit unit %.

Request: Find the recorded % fixing, SEQ ID NO: 19 belonging to CN(C)CCCN [3-DMAPA, 3-3-dimethylaminopropylamine] and report it.
Result: 25

Request: Entry O=c1c(-c2ccccc2)c1-c1ccccc1 [DPCP, diphenylcyclopropenone] : reported % fixing, SEQ ID NO: 19 = ?
Result: 96

Request: What value of % fixing, SEQ ID NO: 19 has been reported for the following molecule? CC(C)=CCCC(C)=CC=O [Cal, citral]
Result: 70

Request: Need % fixing, SEQ ID NO: 19, item Clc1ccccc1 [Cbz, chlorobenzene]
Result: 0

Request: Fill blank: measured % fixing, SEQ ID NO: 19 of the molecule CCCCCCCCCCCCOC(=O)c1cc(O)c(O)c(O)c1 [LG, lauryl gallate] is ____.
Result: 100
